Assayed system: GTPase KRas (Homo sapiens, UniProt P01116, G12C)
Sequence (P01116 whole entry G12C): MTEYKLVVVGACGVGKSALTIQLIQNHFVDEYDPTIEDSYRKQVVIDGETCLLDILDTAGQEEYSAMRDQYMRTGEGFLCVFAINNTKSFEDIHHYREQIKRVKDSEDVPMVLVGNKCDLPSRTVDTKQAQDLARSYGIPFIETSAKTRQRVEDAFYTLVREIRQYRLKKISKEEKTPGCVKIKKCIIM
Test protocol: Inhibition of KRAS G12C mutant in human HCC1171 cells
Format: cell-based
pIC50: −log10 of the molar value.
Assay readout: pIC50

Quickly give me recorded pIC50 for C=CC(=O)N1CCN(c2nc(OC[C@@H]3CCCN3C)nc3c2C[C@@H](C)C(c2cc(O)cc4ccccc24)C3)[C@@H](C)C1 (stereo partly specified)
> 8.22

----------
Assayed system: GTPase KRas (Homo sapiens, UniProt P01116, G12C)
Test protocol: Inhibition of KRAS G12C mutant (unknown origin) by HTRF method
Assay readout: IC50

Quickly give me recorded IC50 for C=CC(=O)N1CCN(c2nc(OC[C@@H]3CCCN3C)nc3c2C[C@@H](C)C(c2cc(O)cc4ccccc24)C3)[C@@H](C)C1 (stereo partly specified)
< 10 nM
